Test system: Mycosphaerella graminicola; Anamorph: Septoria tritici; Bayer Code SEPTTR (standard laboratory isolate, SI SEPTTR)
Assay procedure: Type A (high volume) assay, leaf blotch of wheat, standard laboratory SEPTTR isolate (SI SEPTTR)
Assay type: in vivo, Mycosphaerella graminicola on wheat plants (variety Yuma)
Stated conditions: Zymoseptoria tritici, 24 h, standard laboratory isolate; high volume; 50 ppm; 1 Day Protectant; wheat (Yuma); read-out: Disease Control, SI SEPTTR Type A Assay (50 ppm) 1 DP
Experimental readout: pest or weed control at 50 ppm

INSERT INTO measurements (molecule, experimental_readout, reported) VALUES
  ('OC(c1cncnc1)(c1ccc(-c2ccc(OC(F)F)cc2)cn1)C1CC1 (centres unmarked)', 'pest or weed control at 50 ppm', '80 to 100%'),
  ('OC(c1cccnc1)(c1ccc(-c2ccc(OC(F)F)cc2)cn1)C1CC1 (centres unmarked)', 'pest or weed control at 50 ppm', '80 to 100%'),
  ('CC(C)(C)C(O)(c1cncnc1)c1ccc(-c2cnc(C(F)(F)F)cc2C(F)(F)F)cn1 (centres unmarked)', 'pest or weed control at 50 ppm', '80 to 100%'),
  ('CC(C)(C)C(O)(c1cncnc1)c1ccc(-c2cnc3ccccc3c2)cn1 (centres unmarked)', 'pest or weed control at 50 ppm', '80 to 100%'),
  ('CC(C)C(O)(Cn1cnnn1)c1ccc(-c2ccc(OC(F)(F)F)cc2)cn1 (centres unmarked)', 'pest or weed control at 50 ppm', '40 to 59%'),
  ('CC(C)(C)C(O)(c1cncnc1)c1ccc(Oc2ccc(Cl)cc2)cn1 (centres unmarked)', 'pest or weed control at 50 ppm', '< 40%'),
  ('CC(C)(C)C(O)(Cc1cncnc1)c1ccc(-c2ccc(OC(F)(F)F)cc2)cn1 (centres unmarked)', 'pest or weed control at 50 ppm', '80 to 100%'),
  ('OC(Cc1cncnc1)(c1ccc(-c2ccc(Cl)cc2)cn1)C1CCCCC1 (centres unmarked)', 'pest or weed control at 50 ppm', '60 to 79%'),
  ('CC(C)(C)C(O)(c1cccnc1)c1ccc(-c2ccc(OC(F)(F)F)cc2)cn1 (centres unmarked)', 'pest or weed control at 50 ppm', '80 to 100%'),
  ('CC(C)C(O)(Cn1cnnn1)c1ccc(Oc2ccc(C#N)cc2)cn1 (centres unmarked)', 'pest or weed control at 50 ppm', '< 40%'),
  ('CC(C)(C)C(O)(c1cccnc1)c1ccc(-c2ccc(OC(F)(F)F)cc2F)cn1 (centres unmarked)', 'pest or weed control at 50 ppm', '80 to 100%'),
  ('CCOc1ccc(-c2ccc(C(O)(c3cncnc3)C(C)(C)C)nc2)cc1 (centres unmarked)', 'pest or weed control at 50 ppm', '60 to 79%'),
  ('OC(c1cncnc1)(c1ccc(Oc2ccc(Cl)cn2)cn1)C1CC1 (centres unmarked)', 'pest or weed control at 50 ppm', '80 to 100%'),
  ('CC(C)C(O)(Cn1cnnn1)c1ccc(-c2ccc(OCC(F)(F)F)nc2)cn1 (centres unmarked)', 'pest or weed control at 50 ppm', '40 to 59%'),
  ('N#Cc1ccc(Oc2ccc(C(O)(CC3CC3)Cn3cnnn3)nc2)cc1 (centres unmarked)', 'pest or weed control at 50 ppm', '< 40%'),
  ('COc1ncncc1C(O)(c1ccc(-c2ccc(C(C)(C)C)cc2)cn1)C(C)(C)C (centres unmarked)', 'pest or weed control at 50 ppm', '60 to 79%'),
  ('CC(C)C(O)(c1cncnc1)c1ccc(Oc2ccc(Cl)cc2)cn1 (centres unmarked)', 'pest or weed control at 50 ppm', '80 to 100%'),
  ('COc1ncncc1C(O)(c1ccc(-c2ccc(C#N)cc2)cn1)C(C)(C)C (centres unmarked)', 'pest or weed control at 50 ppm', '80 to 100%'),
  ('C=CCCC(O)(c1cncnc1)c1ccc(Oc2ccc(OC(F)(F)F)cc2)cn1 (centres unmarked)', 'pest or weed control at 50 ppm', '80 to 100%'),
  ('CC(C)(C)C(O)(c1cncnc1)c1ccc(-c2ccc(C#N)cc2)cn1 (centres unmarked)', 'pest or weed control at 50 ppm', '80 to 100%'),
  ('CC(C)(C)C(O)(c1cncnc1)c1ccc(-c2ccoc2)cn1 (centres unmarked)', 'pest or weed control at 50 ppm', '60 to 79%'),
  ('OC(c1cncnc1)(c1ccc(Oc2ccc(OC(F)(F)F)cc2)cn1)C1CC1 (centres unmarked)', 'pest or weed control at 50 ppm', '80 to 100%'),
  ('CC(C)(C)C(O)(c1cccnc1)c1ccc(-c2ccc(OCC(F)(F)F)cc2)cn1 (centres unmarked)', 'pest or weed control at 50 ppm', '80 to 100%'),
  ('Cn1cc(-c2ccc(C(O)(c3cncnc3)C(C)(C)C)nc2)cn1 (centres unmarked)', 'pest or weed control at 50 ppm', '80 to 100%'),
  ('CCC(O)(c1cncnc1)c1ccc(Oc2ccc(C(F)(F)F)cc2)cn1 (centres unmarked)', 'pest or weed control at 50 ppm', '80 to 100%'),
  ('OC(Cc1ccc(Cl)cc1F)(c1cncnc1)c1ccc(Oc2ccc(Cl)cc2)cn1 (centres unmarked)', 'pest or weed control at 50 ppm', '80 to 100%'),
  ('OC(Cc1cncnc1)(c1ccc(-c2ccc(Cl)cc2)cn1)C(F)(F)F (centres unmarked)', 'pest or weed control at 50 ppm', '80 to 100%'),
  ('Cc1cc(-c2ccc(C(O)(c3cncnc3)C(C)(C)C)nc2)ccc1OC(F)(F)F (centres unmarked)', 'pest or weed control at 50 ppm', '60 to 79%'),
  ('COc1ccc(-c2ccc(C(O)(c3cncnc3)C(C)(C)C)nc2)cc1 (centres unmarked)', 'pest or weed control at 50 ppm', '80 to 100%'),
  ('OC(CCc1ccc(Cl)cc1F)(Cn1cnnn1)c1ccc(Oc2ccc(Cl)cn2)cn1 (centres unmarked)', 'pest or weed control at 50 ppm', '60 to 79%'),
  ('CC(C)C(O)(c1cncnc1)c1ccc(Oc2ccc(C#N)cc2)cn1 (centres unmarked)', 'pest or weed control at 50 ppm', '80 to 100%'),
  ('CC(C)(C)C#CC(O)(c1cncnc1)c1ccc(Oc2ccc(OC(F)(F)F)cc2)cn1 (centres unmarked)', 'pest or weed control at 50 ppm', '< 40%'),
  ('CC(C)(C)C(O)(c1cncnc1)c1ccc(-c2ccc(C3(C#N)CC3)cc2)cn1 (centres unmarked)', 'pest or weed control at 50 ppm', '80 to 100%'),
  ('CC(C)(C)C(O)(c1cncnc1)c1ccc(-c2ccc(OC(F)(F)F)c(F)c2)cn1 (centres unmarked)', 'pest or weed control at 50 ppm', '80 to 100%'),
  ('CC(C)C(O)(c1cncnc1)c1ccc(Oc2ccc(Cl)cn2)cn1 (centres unmarked)', 'pest or weed control at 50 ppm', '80 to 100%');
